TESTED ON: sGC α1/β1 heterodimer (Homo sapiens, UniProt Q02108+Q02153)
Construct: expressed in transfected cells; host or cells: CHO-K1 (clone #7, CHO-K1/sGC)
Sequence (Q02108 whole entry): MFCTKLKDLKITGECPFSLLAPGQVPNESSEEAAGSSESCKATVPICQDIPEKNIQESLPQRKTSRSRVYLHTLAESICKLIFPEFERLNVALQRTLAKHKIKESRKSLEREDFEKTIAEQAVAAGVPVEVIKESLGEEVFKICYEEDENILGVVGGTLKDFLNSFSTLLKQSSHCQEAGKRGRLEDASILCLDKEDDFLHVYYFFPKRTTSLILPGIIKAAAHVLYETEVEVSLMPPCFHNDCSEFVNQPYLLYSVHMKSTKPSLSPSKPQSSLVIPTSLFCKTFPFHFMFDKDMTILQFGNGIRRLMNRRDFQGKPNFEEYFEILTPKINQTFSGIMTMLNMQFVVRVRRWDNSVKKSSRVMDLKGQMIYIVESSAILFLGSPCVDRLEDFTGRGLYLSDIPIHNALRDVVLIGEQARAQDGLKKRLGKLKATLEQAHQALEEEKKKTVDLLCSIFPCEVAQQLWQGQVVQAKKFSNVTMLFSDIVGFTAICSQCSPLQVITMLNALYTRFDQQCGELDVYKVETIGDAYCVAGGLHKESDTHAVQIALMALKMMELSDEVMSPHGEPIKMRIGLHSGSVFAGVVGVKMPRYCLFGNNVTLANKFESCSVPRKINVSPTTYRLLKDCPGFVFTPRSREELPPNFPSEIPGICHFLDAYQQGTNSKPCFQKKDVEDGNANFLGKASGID
Sequence (Q02153 whole entry): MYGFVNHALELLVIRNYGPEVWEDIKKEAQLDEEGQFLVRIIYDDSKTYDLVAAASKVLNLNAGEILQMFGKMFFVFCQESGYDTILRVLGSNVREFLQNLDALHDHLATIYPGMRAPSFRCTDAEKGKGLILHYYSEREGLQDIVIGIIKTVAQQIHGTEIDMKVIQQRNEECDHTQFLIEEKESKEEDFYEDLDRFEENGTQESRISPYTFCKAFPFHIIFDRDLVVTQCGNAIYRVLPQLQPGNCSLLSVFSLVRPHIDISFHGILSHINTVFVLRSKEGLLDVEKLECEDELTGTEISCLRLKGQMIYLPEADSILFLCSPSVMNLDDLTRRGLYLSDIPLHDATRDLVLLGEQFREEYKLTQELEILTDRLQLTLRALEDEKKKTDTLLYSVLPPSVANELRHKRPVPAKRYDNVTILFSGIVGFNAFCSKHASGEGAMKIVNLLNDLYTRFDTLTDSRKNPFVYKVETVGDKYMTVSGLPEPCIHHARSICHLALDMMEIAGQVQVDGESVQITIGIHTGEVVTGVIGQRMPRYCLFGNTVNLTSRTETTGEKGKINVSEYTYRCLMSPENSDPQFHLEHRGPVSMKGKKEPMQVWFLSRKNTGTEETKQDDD
TEST NAME: Cell-Based sGC Functional Assay (CASA Assay), cGMP by HTRF in CHO-K1/sGC cells
REPORTED CONDITIONS: CHO-K1, percent activation relative to maximum cGMP production of Compound A (= 100%), read-out: % Act.
This listing pairs compounds with measured Emax.

COMPOUND | UNIT DESCRIPTOR | Emax
CC1(c2ccc(F)cc2)C(=O)Nc2nc(-c3cn4ccnc4c(CCC(F)(F)C(F)(F)F)n3)nc(C(N)=O)c21 (stereo not shown) [Example 86A] | % | 109
CC1(c2ccc(Cl)cc2)C(=O)Nc2nc(-c3cn4ccnc4c(CCCC(F)(F)F)n3)ncc21 (stereo not shown) [Example 40A] | % | 110
CC1(c2ccc(Cl)cc2)C(=O)Nc2nc(-c3cn4ccnc4c(CCCC(F)(F)F)n3)nc(O)c21 (stereo not shown) [Example 26A] | % | 90
CC1(C(=O)NC2CC2)C(=O)Nc2nc(-c3cn4ccnc4c(Cc4ccc(F)cc4)n3)ncc21 (single isomer, unassigned) [Example 67A] | % | 167
CC1(c2ccc(Cl)cc2)C(=O)Nc2nc(-c3cn4ccnc4cn3)nc(-c3ccccc3)c21 (stereo not shown) [Example 84A] | % | 127
O=C1Nc2nc(-c3cn4ccnc4c(CCC(F)(F)C(F)(F)F)n3)nc(O)c2C1(c1ccc(F)cc1)C1CC1 (stereo not shown) [Example 12B] | % | 92
O=C1Nc2nc(-c3cn4ccnc4c(CCC(F)(F)C(F)(F)F)n3)nc(O)c2C1(c1ccc(Cl)cn1)C1CC1 (stereo not shown) [Example 8A] | % | 142

* * *

This listing pairs compounds with measured Emax.
TESTED ON: sGC α1/β1 heterodimer (Homo sapiens, UniProt Q02108+Q02153)
Construct: expressed in transfected cells; host or cells: CHO-K1 (clone #7, CHO-K1/sGC)
TEST NAME: Cell-Based sGC Functional Assay (CASA Assay), cGMP by HTRF in CHO-K1/sGC cells
REPORTED CONDITIONS: CHO-K1, percent activation relative to maximum cGMP production of Compound A (= 100%), read-out: % Act.
METRIC NAME: Emax (%)

COMPOUND | TESTED ON | METRIC NAME | NUMERIC VALUE
CC1(c2ccc(F)cn2)C(=O)Nc2nc(-c3cn4ccnc4c(CC4CCC4)n3)nc(O)c21 (stereo not shown) [Example 31B] | sGC α1/β1 heterodimer (Homo sapiens, UniProt Q02108+Q02153) | Emax | 82
O=C1Nc2nc(-c3cn4ccnc4c(CCCC(F)(F)F)n3)ncc2C1(c1ccc(Cl)c(F)c1)C1CC1 (stereo not shown) [Example 48A] | sGC α1/β1 heterodimer (Homo sapiens, UniProt Q02108+Q02153) | Emax | 130
CC(C)C1(C)C(=O)Nc2nc(-c3cn4ccnc4c(Cc4ccccc4)n3)ncc21 (single isomer, unassigned) [Example 95A] | sGC α1/β1 heterodimer (Homo sapiens, UniProt Q02108+Q02153) | Emax | 113
CC1(c2ccc(F)cn2)C(=O)Nc2nc(-c3cn4ccnc4c(CC4CCC4)n3)ncc21 (stereo not shown) [Example 65B] | sGC α1/β1 heterodimer (Homo sapiens, UniProt Q02108+Q02153) | Emax | 102
